Assign scaled log2 fold change to each entry below.
B1: library; numbered along this chain (parent)
chain: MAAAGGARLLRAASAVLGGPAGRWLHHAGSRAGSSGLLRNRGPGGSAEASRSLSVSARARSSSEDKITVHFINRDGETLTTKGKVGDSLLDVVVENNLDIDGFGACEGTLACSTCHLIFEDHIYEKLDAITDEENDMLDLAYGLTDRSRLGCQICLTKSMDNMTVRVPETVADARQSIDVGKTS

# Variants of: B1
# assay summary: scaled log2 fold change in cell abundance, elesclomol vs control (0 = silent mean, 1 = nonsense mean) (scaled log2 ratio); higher = higher viability under elesclomol (loss of FDX1 cuproptosis function);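 note: variant abundance is its share of total variant reads in each endpoint sample, from next-generation sequencing of the integrated ORF PCR-amplified out of genomic DNA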
# experimental parameters: with HEK293T FDX1 KO; elesclomol 40 nM; glucose 10 mM; 11 days
Answers are plain numbers.

variant annotation	value measured
E120Q	0.816

# per-item lookup of scaled log2 fold change; items listed below
1. F71V
2. I154W
3. S159V
4. L117W
5. G19R

1. -0.215
2. 0.877
3. 0.738
4. 0.891
5. 1.5
